- procedure.details: in vivo
- condition.set: both, SD, rat, iv, 3 mg/kg
measure: clearance
Report as: number unit

For the molecule shown here, O=C(O)[C@H]1C2CCC(CC2)[C@@H]1Nc1nc(-c2n[nH]c3ncc(F)cc23)nc(C2CC2)c1F , give the reported clearance.
12.9 mL/min/kg

###

- procedure.details: in vivo
- condition.set: both, beagle, dog, po, 5 mg/kg
measure: AUC(0-t) (ng·h/mL)
// units = ng·h/mL; emit number, no label

For the compound shown here, O=C(O)[C@H]1C2CCC(CC2)[C@@H]1Nc1nc(-c2n[nH]c3ncc(F)cc23)nc(C2CC2)c1F , give the reported AUC(0-t).
1210

###

- procedure.details: in vivo
- condition.set: both, beagle, dog, iv, 1 mg/kg
measure: Vd (L/kg)
// units = L/kg; emit number, no label

For the compound shown here, O=C(O)[C@H]1C2CCC(CC2)[C@@H]1Nc1nc(-c2n[nH]c3ncc(F)cc23)nc(C2CC2)c1F , give the reported Vd.
0.47

###

- procedure.details: in vitro
- condition.set: human
measure: CC50

For the compound shown here, O=C(O)[C@H]1C2CCC(CC2)[C@@H]1Nc1nc(-c2n[nH]c3ncc(F)cc23)nc(C2CC2)c1F , give the reported CC50.
> 10 µM

###

- subject.of.test: CCKa (Homo sapiens, UniProt P32238)
- Sequence (P32238 1-428): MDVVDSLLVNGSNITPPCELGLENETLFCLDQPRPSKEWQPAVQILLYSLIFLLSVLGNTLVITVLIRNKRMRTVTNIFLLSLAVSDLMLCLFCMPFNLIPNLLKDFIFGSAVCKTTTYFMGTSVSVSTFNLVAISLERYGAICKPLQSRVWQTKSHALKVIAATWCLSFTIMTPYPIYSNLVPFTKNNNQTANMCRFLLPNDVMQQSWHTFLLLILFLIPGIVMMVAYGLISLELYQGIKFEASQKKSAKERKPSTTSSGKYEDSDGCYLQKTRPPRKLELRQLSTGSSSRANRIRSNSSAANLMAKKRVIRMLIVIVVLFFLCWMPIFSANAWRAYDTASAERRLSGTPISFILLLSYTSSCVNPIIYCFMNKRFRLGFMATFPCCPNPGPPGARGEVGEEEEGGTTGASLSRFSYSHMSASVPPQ
- procedure.details: cell-based
- condition.set: read-out: IC50
measure: pIC50
The scale used: pIC50 is minus the common logarithm of the concentration in molar units.

GET /values?readout=pIC50&system=CCKa (Homo sapiens, UniProt P32238)&item= CCCCCN(CCCCC)C(=O)C(CCC(=O)O)NC(=O)c1ccc(Cl)c(Cl)c1 (stereo not shown) [Lorglumide, reference compound]
6.59

###

- subject.of.test: PDK1 (Homo sapiens, UniProt O15530)
- Sequence (O15530 whole entry): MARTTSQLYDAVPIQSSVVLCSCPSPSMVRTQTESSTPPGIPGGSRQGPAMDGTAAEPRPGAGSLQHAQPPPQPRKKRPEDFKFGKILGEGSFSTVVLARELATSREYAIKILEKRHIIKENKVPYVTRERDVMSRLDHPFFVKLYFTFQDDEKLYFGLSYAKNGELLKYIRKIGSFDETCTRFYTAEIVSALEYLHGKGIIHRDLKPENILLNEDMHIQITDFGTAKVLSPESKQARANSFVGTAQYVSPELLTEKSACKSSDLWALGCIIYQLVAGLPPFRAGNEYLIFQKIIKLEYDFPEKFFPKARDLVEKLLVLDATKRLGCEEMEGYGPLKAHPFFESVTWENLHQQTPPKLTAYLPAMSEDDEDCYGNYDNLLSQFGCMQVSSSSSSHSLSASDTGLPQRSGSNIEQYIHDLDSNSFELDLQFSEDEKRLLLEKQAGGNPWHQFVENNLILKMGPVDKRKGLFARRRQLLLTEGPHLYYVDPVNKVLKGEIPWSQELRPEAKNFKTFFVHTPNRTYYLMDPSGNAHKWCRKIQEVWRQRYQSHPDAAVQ
Reported values of IC50 for individual entries

compound="O=C(O)[C@H]1C2CCC(CC2)[C@@H]1Nc1nc(-c2n[nH]c3ncc(F)cc23)nc(C2CC2)c1F [ZSP1273]" reported_result="> 10 µM"

Please examine the following record next.
GET /values?readout=IC50&system=PDK1 (Homo sapiens, UniProt O15530)&item= O=C(O)[C@H]1C2CCC(CC2)[C@@H]1Nc1nc(-c2c[nH]c3ncc(F)cc23)ncc1F [VX-787, reference compound]
> 10 µM
